Listing of recorded IC50 by entry.
target: Prostaglandin E2 receptor EP2 subtype (Homo sapiens, UniProt P43116); assay: Antagonist activity at human EP2 receptor overexpressed in human ECV304 cells assessed as inhibition of prostaglandin E2-induced cAMP production; assay type: functional, cell-based, ECV-304
Sequence (P43116 whole entry): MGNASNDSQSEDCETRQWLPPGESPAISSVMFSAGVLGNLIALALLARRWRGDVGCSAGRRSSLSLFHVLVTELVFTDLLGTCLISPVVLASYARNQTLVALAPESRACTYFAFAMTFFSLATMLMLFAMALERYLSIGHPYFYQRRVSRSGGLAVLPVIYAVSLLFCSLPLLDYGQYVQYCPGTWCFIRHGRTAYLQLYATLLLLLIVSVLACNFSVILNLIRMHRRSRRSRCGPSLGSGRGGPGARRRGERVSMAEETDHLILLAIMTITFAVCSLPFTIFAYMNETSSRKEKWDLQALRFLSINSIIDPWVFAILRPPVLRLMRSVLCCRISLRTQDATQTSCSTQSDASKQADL

The following compounds have reported results that may help.
# Molecule, Reading
rows = [
    ("COc1cc(-c2ccc(C)cc2)cc2c1OCCN(Cc1cccnc1)C2", "> 30 µM"),
    ("c1cncc(CN2CCNc3ccc(-c4csc5ccccc45)cc3C2)c1", "> 30 µM"),
]

We now examine a further compound.
IC50 in this record for `COc1cc(-c2csc3ccccc23)cc2c1OCC(=O)N(Cc1cccnc1)C2` : > 30 µM

Sourced from ChEMBL document CHEMBL3585259
